- Test system: muMax20 (Max(13-93) K31hArg/K57hArg, M65Nle)
- experiment-summary: PBM 8-mer E-score (E-score (rank enrichment, -0.5 to 0.5)); higher = stronger preferential binding
The full ranking holds about 33,000 sequences; the median of “E-score (rank enrichment, -0.5 to 0.5)” is about -0.0068, and the highest 2% start at about 0.24. The full list was thinned out, with the highest values kept by preference.
outcome-measure: PBM 8-mer E-score
Give bare numbers.

chain-sequence: CCGTGGCA
data-value: -0.149

chain-sequence: CCGTAGTC
data-value: -0.131

Hi, could you look up PBM 8-mer E-score for each item in my list?
1. ACGTGGCT
2. AGACAACA
3. TAAGCTGA
4. ACGTGGCA

1. 0.249
2. 0.0868
3. 0.0855
4. 0.256

====

- System: muMax20 (Max(13-93) K31hArg/K57hArg, M65Nle)
- experiment-summary: PBM 8-mer E-score (E-score (rank enrichment, -0.5 to 0.5)); higher = stronger preferential binding
In all, about 33,000 sequences were measured (“E-score (rank enrichment, -0.5 to 0.5)”: median about -0.0068, highest 2% from about 0.24 on). The sample as a whole holds a higher share of the highest values than the screen did.
outcome-measure: PBM 8-mer E-score
Give bare numbers.

Hi, could you look up PBM 8-mer E-score for each item in my list?
1. CTGAGCTA
2. AACGGCTG

-0.17
-0.184

====

- System: muMax20 (Max(13-93) K31hArg/K57hArg, M65Nle)
- experiment-summary: PBM 8-mer E-score (E-score (rank enrichment, -0.5 to 0.5)); higher = stronger preferential binding
Whole data set: some 33,000 sequences, median “E-score (rank enrichment, -0.5 to 0.5)” near -0.0068, cut for the highest 2% near 0.24. The sample holds the highest values, similar sequences and a random draw of the others, so the mix is not that of the screen.
Class assignment keyed on PBM 8-mer E-score, ranges label 0 (below 0.07), label 1 (0.07 to below 0.2), label 2 (0.2 or more)

chain-sequence: ACTGATTA
class-name: label 1
//
chain-sequence: AATGAACT
class-name: label 0
//
chain-sequence: GATGAATA
class-name: label 2
//
chain-sequence: CCATGTTA
class-name: label 1
//
chain-sequence: CCACATGG
class-name: label 2
//
chain-sequence: GAAAGGCC
class-name: label 0

Next up:
Band for the recorded PBM 8-mer E-score of CCTGATTA ?
label 1

====

- Test system: muMax20 (Max(13-93) K31hArg/K57hArg, M65Nle)
- experiment-summary: PBM 8-mer E-score (E-score (rank enrichment, -0.5 to 0.5)); higher = stronger preferential binding
Whole data set: some 33,000 sequences, median “E-score (rank enrichment, -0.5 to 0.5)” near -0.0068, cut for the highest 2% near 0.24. What follows is part of a selection rich in the highest values, with near analogues and random picks from the rest.
Class assignment keyed on PBM 8-mer E-score, ranges low = under 0.1, moderate = from 0.1 up to 0.2, high = 0.2 and over

chain-sequence: CATGTGAC
class-name: high
//
chain-sequence: ATTCATTC
class-name: high
//
chain-sequence: AGCTGGGC
class-name: low
//
chain-sequence: CATTTATA
class-name: moderate
//
chain-sequence: AATTTATA
class-name: high

Band for the recorded PBM 8-mer E-score of CTTTTATA ?
moderate

Band for the recorded PBM 8-mer E-score of ACCCGCCC ?
moderate

Band for the recorded PBM 8-mer E-score of CCAGCTAC ?
low
